System: normal ECG in rats
Test: The effect on normal electrocardiogram in rats
Format: in vivo, rat
Conditions: anesthetized rats, i.p. at ED84; 60 min
Measured QT (ECG) values are reported for all entries that follow.
MEASUREMENT_NAME: QT (ECG)

QUERY_SMILES | MEASUREMENT
COc1ccccc1N1CCN(CCCOc2cc(C)ccc2Cl)CC1 | 55.5 ± 2.4 ms
COc1ccccc1N1CCN(CCCOc2c(C)cc(C)cc2C)CC1 | 76.7 ± 3.5 ms
COc1ccccc1N1CCN(CCCOc2cc(C)cc(C)c2C)CC1 | 80.2 ± 0.4 ms
COc1ccccc1N1CCN(CCOCCOc2c(C)cccc2C)CC1.Cl | 89.5 ± 2.4 ms
COc1ccccc1N1CCN(CCOCCOc2c(C)cccc2Cl)CC1.Cl | 88.5 ± 2.2 ms
